Experiment: Cytotoxicity against HUVEC cells assessed as cell viability at 70 ug/ml after 24 hrs by MTT assay
Assay type: cell-based
Conditions: human, read-out: Activity
READOUT KIND: viability at 24 h, 70 ug/ml (%)
Value expressed in %; do not type the unit.

*Q* For the molecule CC(C)OC(=O)/C=C/c1coc2ccccc2c1=O , what viability at 24 h, 70 ug/ml is on record?
*A* 98

----------
Assay: Cytotoxicity against HUVEC cells assessed as cell viability at 110 ug/ml after 24 hrs by MTT assay
Format: cell-based
Details: human, read-out: Activity
READOUT KIND: viability at 24 h, 110 ug/ml
Number first, unit second: that is the form wanted.

*Q* For the compound CCCOC(=O)/C=C/c1coc2cc(O)ccc2c1=O , what viability at 24 h, 110 ug/ml is on record?
*A* 97%

----------
Tested on: Liver microsomes
Assay: Inhibition of NADPH-catalyzed lipid peroxidation in Wistar rat liver microsome at 90 ug/ml after 10 mins
Assay type: functional
For each of the compounds below, state its inhibition.
Value expressed in %; do not type the unit.

*Q* // map C=CCOC(=O)/C=C/c1coc2ccccc2c1=O to recorded inhibition (system: Liver microsomes)
*A* 43.4

*Q* // map O=c1ccoc2ccccc12 to recorded inhibition (system: Liver microsomes)
*A* 25.4

*Q* // map CCOC(=O)/C=C/c1coc2ccccc2c1=O to recorded inhibition (system: Liver microsomes)
*A* 52.9

*Q* // map CCOC(=O)/C=C/c1coc2cc(O)ccc2c1=O to recorded inhibition (system: Liver microsomes)
*A* 32.3

----------
Test: Cytotoxicity against HUVEC cells assessed as cell viability at 80 ug/ml after 24 hrs by MTT assay
Assay type: cell-based
Details: human, read-out: Activity
READOUT KIND: viability at 24 h, 80 ug/ml
Number first, unit second: that is the form wanted.

*Q* For the compound CCCOC(=O)/C=C/c1coc2ccccc2c1=O , what viability at 24 h, 80 ug/ml is on record?
*A* 97%

----------
Assay: Cytotoxicity against HUVEC cells assessed as cell viability at 90 ug/ml after 24 hrs by MTT assay
Format: cell-based
Details: human, read-out: Activity
READOUT KIND: viability at 24 h, 90 ug/ml (%)
Value expressed in %; do not type the unit.

*Q* For the compound CCOC(=O)/C=C/c1coc2cc(O)ccc2c1=O , what viability at 24 h, 90 ug/ml is on record?
*A* 95

*Q* For the compound C=CCOC(=O)/C=C/c1coc2ccccc2c1=O , what viability at 24 h, 90 ug/ml is on record?
*A* 95

*Q* For the compound CCOC(=O)/C=C/c1coc2ccccc2c1=O , what viability at 24 h, 90 ug/ml is on record?
*A* 96

*Q* For the compound O=c1ccoc2ccccc12 , what viability at 24 h, 90 ug/ml is on record?
*A* 95

Origin of values: ChEMBL document CHEMBL1147857
